The measured values listed here are drawn from patent US20220249492A1.

# SYSTEM UNDER TEST: protein-protein interaction between SOS1 and KRAS G12D (Homo sapiens)
# Construct: GST-TEV-SOS1 (564-1049) is purchased from Viva Biotech Ltd; purchased Viva Biotech Ltd. (GST-TEV-SOS1); Xtal BioStructures, Inc. (K-Ras G12D) Lot #X129-110 (K-Ras)
# Sequence (Q07889 564-1049, stated change not applied): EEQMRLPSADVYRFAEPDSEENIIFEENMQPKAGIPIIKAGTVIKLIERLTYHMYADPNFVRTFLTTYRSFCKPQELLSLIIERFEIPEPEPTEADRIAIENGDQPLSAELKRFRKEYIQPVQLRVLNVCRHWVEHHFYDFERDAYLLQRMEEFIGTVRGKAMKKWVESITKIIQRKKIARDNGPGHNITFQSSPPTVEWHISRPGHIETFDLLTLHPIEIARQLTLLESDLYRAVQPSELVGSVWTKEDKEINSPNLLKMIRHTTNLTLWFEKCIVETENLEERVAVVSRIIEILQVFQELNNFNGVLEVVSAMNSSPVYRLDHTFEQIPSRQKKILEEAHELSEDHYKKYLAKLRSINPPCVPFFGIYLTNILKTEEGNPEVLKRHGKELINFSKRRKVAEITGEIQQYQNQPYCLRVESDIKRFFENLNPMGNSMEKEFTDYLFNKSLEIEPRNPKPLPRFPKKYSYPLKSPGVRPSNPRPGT
# ASSAY TEXT: KRAS::SOS1 AlphaScreen binding assay
# CONDITION INFO: KRAS G12D::SOS1 AlphaScreen; measured without EDTA unless marked with an asterisk
pIC50: −log10 of the molar value.

{"MOLECULE": "C[C@@H](Nc1ncnc2c(C3CC3)c(=O)n(C3(C)CC3)cc12)c1cccc(C(F)F)c1F", "pIC50": 7.96}
{"MOLECULE": "Cc1nc(N[C@H](C)c2cccc(C(C)(F)F)c2)c2cn(C3(C(F)(F)F)CCOC3)c(=O)cc2n1 (stereo partly drawn)", "pIC50": 7.74}
{"MOLECULE": "Cc1nc(N[C@H](C)c2cccc(C(F)(F)F)c2C)c2cn(C34CCN(CC3)CC4)c(=O)cc2n1", "pIC50": 8.70}
